- Test system: human airway epithelial cells (HAECs)
- Assay Info: High-throughput sequencing (HTS) of miRNAs at four stages of differentiation of HAECs
- Particulars: HTS, ALI-D0
Property Measured: Abundance (%), D0
# unit: % | format: bare number

Example entries and their recorded answers appear below.
Reported Abundance (%), D0 for hsa-miR-23b: human miRNA, SEQ ID No. 26 (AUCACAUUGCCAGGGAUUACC; expressed or natural sequence; listed as Homo sapiens) was 3.73

Abundance (%), D0 reported for this substance hsa-miR-29a: human miRNA, SEQ ID No. 31 (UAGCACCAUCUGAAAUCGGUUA; expressed or natural sequence; listed as Homo sapiens) : 17.01

# context switch: different substance, same Abundance (%), D0
Measured Abundance (%), D0 of hsa-miR-99a: human miRNA, SEQ ID No. 52 (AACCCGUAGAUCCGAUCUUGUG; expressed or natural sequence; listed as Homo sapiens) : 0.19

meta.source: patent US9023821B2
